# credit: ChEMBL document CHEMBL3988442

Target: Protein translocase subunit SecA (Escherichia coli (strain K12))
Assay: Assay to Identify E. coli SecA ATPase Inhibitors
Format: functional
Design: scale not given: direction of the effect not stated beside the values
Details: 30 µM
Measured potencies and affinities stand elsewhere.
Consider the following compounds; for each one, report its Percent Effect.
Give the quantity in %, number only.

// assay Protein translocase subunit SecA (Escherichia coli (strain K12)), entry CCN(Cc1ccc2c(c1)OCO2)C(=O)c1ccc(C)[nH]c1=O , Percent Effect value = -4.38

// assay Protein translocase subunit SecA (Escherichia coli (strain K12)), entry Cc1cc(F)ccc1CNCCn1cccn1 , Percent Effect value = -2.76

// assay Protein translocase subunit SecA (Escherichia coli (strain K12)), entry CC1CCc2nc(O)c(C(=O)NCc3cccc(F)c3)cc2C1 (configuration not stated) , Percent Effect value = -3.85

// assay Protein translocase subunit SecA (Escherichia coli (strain K12)), entry O=C(Cn1cccn1)NCC1(c2ccccc2)CC1 , Percent Effect value = -4.9

// assay Protein translocase subunit SecA (Escherichia coli (strain K12)), entry CC(NC(N)=O)C(=O)N1CCCN(Cc2nccn2C(C)C)CC1 (configuration not stated) , Percent Effect value = -1.61

// assay Protein translocase subunit SecA (Escherichia coli (strain K12)), entry CCOc1ccccc1C(CC(=O)Nc1ccc(C)cn1)NC(C)=O (configuration not stated) , Percent Effect value = -3.17

// assay Protein translocase subunit SecA (Escherichia coli (strain K12)), entry O=C(NCCNc1ncccn1)c1ccc(-c2ccco2)[nH]c1=O , Percent Effect value = -5.27

// assay Protein translocase subunit SecA (Escherichia coli (strain K12)), entry O=C(NCCS(=O)(=O)N1CCc2ccccc21)c1c(O)cc(F)cc1F , Percent Effect value = -5.35

// assay Protein translocase subunit SecA (Escherichia coli (strain K12)), entry CC(C)(C)OC(=O)N1CCCc2ccc(NCc3ncc[nH]3)cc21 , Percent Effect value = -8.07

// assay Protein translocase subunit SecA (Escherichia coli (strain K12)), entry Cn1cc(N2CCC3(CCN(Cc4nccs4)C3)C2=O)cn1 (configuration not stated) , Percent Effect value = -2.64

// assay Protein translocase subunit SecA (Escherichia coli (strain K12)), entry Cc1nc(CN2CCOC(CNc3cccnn3)C2)cs1 (configuration not stated) , Percent Effect value = 0.542

// assay Protein translocase subunit SecA (Escherichia coli (strain K12)), entry CCC(C(=O)NCc1ccncc1)N(c1cccc(C)c1)S(C)(=O)=O (configuration not stated) , Percent Effect value = -2.54

====

Molecular target: Ubiquitin-activating enzyme e1, putative (Leishmania donovani (strain BPK282A1))
Sequence (whole entry): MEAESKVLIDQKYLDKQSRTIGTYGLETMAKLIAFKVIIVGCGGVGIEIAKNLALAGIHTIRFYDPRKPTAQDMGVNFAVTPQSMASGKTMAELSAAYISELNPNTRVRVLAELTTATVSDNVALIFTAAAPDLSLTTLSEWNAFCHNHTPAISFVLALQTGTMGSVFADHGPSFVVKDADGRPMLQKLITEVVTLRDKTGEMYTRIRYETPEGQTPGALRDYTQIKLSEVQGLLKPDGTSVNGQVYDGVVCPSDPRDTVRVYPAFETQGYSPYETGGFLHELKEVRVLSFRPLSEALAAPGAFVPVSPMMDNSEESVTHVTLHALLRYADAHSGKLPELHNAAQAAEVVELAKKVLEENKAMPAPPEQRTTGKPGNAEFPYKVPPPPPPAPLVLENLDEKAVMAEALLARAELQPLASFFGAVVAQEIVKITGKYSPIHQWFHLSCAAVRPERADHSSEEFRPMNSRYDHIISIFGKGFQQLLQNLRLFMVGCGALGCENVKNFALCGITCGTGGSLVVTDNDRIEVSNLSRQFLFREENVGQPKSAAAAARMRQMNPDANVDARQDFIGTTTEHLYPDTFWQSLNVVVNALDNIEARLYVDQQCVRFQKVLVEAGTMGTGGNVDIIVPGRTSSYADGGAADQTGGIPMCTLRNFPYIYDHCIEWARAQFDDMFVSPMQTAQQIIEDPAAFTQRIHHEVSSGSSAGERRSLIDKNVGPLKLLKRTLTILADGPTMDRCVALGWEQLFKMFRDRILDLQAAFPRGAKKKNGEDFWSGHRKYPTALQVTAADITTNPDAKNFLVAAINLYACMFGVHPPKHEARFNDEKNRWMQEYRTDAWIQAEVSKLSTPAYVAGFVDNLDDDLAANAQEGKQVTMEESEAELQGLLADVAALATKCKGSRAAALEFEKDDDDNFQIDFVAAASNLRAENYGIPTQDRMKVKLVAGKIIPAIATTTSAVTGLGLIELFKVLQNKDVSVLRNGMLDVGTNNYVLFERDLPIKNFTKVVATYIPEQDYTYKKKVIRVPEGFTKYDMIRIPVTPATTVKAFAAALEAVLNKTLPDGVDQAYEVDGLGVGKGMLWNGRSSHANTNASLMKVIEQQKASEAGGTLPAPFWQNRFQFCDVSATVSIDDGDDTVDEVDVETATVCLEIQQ
Assay: Leishmania donovani Ubiquitin Activating Enzyme (LdE1)
Assay type: functional
Design: scale not given: direction of the effect not stated beside the values
Conditions: 30 µM
Measured potencies and affinities stand elsewhere.
propertyLabel: Percent Effect (%)
Give the quantity in %, number only.

Recorded Percent Effect (compound CCCN1CCC(NC(=O)c2ccc(F)cc2I)CC1 ): 18.1

Recorded Percent Effect (compound CNC(=O)c1cc2c(nc1N(C)C)CCN(S(=O)(=O)C1CC1)CC2 ): 10.4

Recorded Percent Effect (compound Cn1c(CN2CCOC(c3nc(C(C)(C)C)n[nH]3)C2)nnc1C1CC1 (configuration not stated) ): -26

Recorded Percent Effect (compound CC(C)(C)NC(=O)NC(=O)CNC(C)(C)c1ccc2c(c1)OCCO2 ): 13.5

Recorded Percent Effect (compound Cc1occc1C(=O)N1CCC2(CCN(Cc3nccs3)C2)CC1 ): 2.6

Recorded Percent Effect (compound O=C(NCCN1CCOCC1)c1ccc(-n2ccc3ccccc32)s1 ): 10.4

Recorded Percent Effect (compound Cc1cnn(CCC(=O)N2CCC(Nc3cccnn3)CC2)c1 ): 5.41

Recorded Percent Effect (compound COc1ccccc1OCC(=O)NCC(O)(c1ccccc1)C1CC1 (configuration not stated) ): 13.7

Recorded Percent Effect (compound CC(C)n1cc(CN2CCCN(C(=O)c3ccc[nH]3)CC2)cn1 ): 13.5

Recorded Percent Effect (compound O=C(NCC(F)(F)F)NC1CCCc2c1cnn2CCO (configuration not stated) ): 16

Recorded Percent Effect (compound CC(=O)N1CC(=O)N(c2cnn(C)c2)CC12CCN(Cc1ccsc1)C2 (configuration not stated) ): 2.7

Recorded Percent Effect (compound Cc1cn2c(n1)CCC(NC(=O)c1cnc(C)nc1C(C)C)C2 (configuration not stated) ): 10.4

Recorded Percent Effect (compound CN(C)CCn1c(=O)oc2ccc(NC(=O)CC(C)(C)C)cc21 ): 16

Recorded Percent Effect (compound O=C(NCC1CCOCC1)[C@@H]1C[C@@H]2CCN(Cc3ccco3)C[C@H]2O1 ): 5.33

Recorded Percent Effect (compound Cn1c(Cn2ccnc2)nnc1C1CCN(C(=O)C2(C)CC2)CC1 ): 11

Recorded Percent Effect (compound O=S(=O)(C1CC1)N1CCO[C@H]2[C@H](OCCN3CCCC3)CC[C@@H]21 ): 18.7

Recorded Percent Effect (compound O=C(NCCCn1cccn1)C1(c2ccc(Br)cc2)CC1 ): 8.22

Recorded Percent Effect (compound Cc1ccc(CNCc2nnc3n2CC(C(F)(F)F)CC3)cc1 (configuration not stated) ): 18.9

Recorded Percent Effect (compound COc1ccc([C@@H]2CN(C(=O)CCC(F)(F)F)C[C@H]2NC(C)=O)cc1 ): 2.67

Recorded Percent Effect (compound CC(CNC(=O)N1CCN(c2cnccn2)CC1)Cc1cccs1 (configuration not stated) ): 2.7

Recorded Percent Effect (compound CCOCC(O)CN1CCN(C(=O)c2cccc(F)c2)CC1 (configuration not stated) ): 2.7

Recorded Percent Effect (compound COc1ccc(-n2cnnc2SCCC#N)cn1 ): 8

Recorded Percent Effect (compound NC[C@H]1CC[C@H](C(NC(=O)c2cccc(F)c2)c2ccccn2)CC1 (some centres not stated) ): 12

Recorded Percent Effect (compound Cc1cc(C(=O)N2CCC3(CCCN(CC4CC4)C3=O)C2)c(C)n1C (configuration not stated) ): 5.48

Recorded Percent Effect (compound NC(=O)c1cccc(CC2CCN(C(=O)CCCN3CCOCC3)C2)c1 (configuration not stated) ): -2.74

Recorded Percent Effect (compound CCOc1cc(CN(C)CCOC)ccc1OC(F)F ): -2.6

Recorded Percent Effect (compound Cc1cc(C)c(CNC(=O)N(C)Cc2sccc2C)c(=O)[nH]1 ): 18.4

Recorded Percent Effect (compound CC(C)OCC(=O)N1CCCN(Cc2ccc(C#N)cc2)CC1 ): 13.2

Recorded Percent Effect (compound CCc1noc(C2CCCCN2C(=O)c2ccn(C3CCCC3)n2)n1 (configuration not stated) ): 20

Recorded Percent Effect (compound CCOc1cc(C(=O)N2CCCC(c3cc(C(N)=O)[nH]n3)C2)ccn1 (configuration not stated) ): 10.5

Recorded Percent Effect (compound COc1ccc(CCN2CCC(N3CCN(C)C3=O)CC2)cc1 ): 13

Recorded Percent Effect (compound Cc1nc(C)c(C(=O)NCCNC(=O)Cc2cccc(F)c2)s1 ): 16.2

Recorded Percent Effect (compound O=C(Cn1ccnc1)N1C[C@@H]2CC[C@H](Oc3ccccc3Cl)[C@@H]2C1 ): -4.05

Recorded Percent Effect (compound Cc1ccn(-c2ccc(C(=O)N3CCCC(C(N)=O)C3)cc2)n1 (configuration not stated) ): 10.1

Recorded Percent Effect (compound CN(C)S(=O)(=O)N1CCN(c2nccc(C(F)(F)F)n2)CC1 ): 5.48

Recorded Percent Effect (compound Cc1cccc(CC(=O)NCCCOC(C)C)c1 ): 18.2

Recorded Percent Effect (compound COC(=O)CCC(=O)N1CCC2(CN(Cc3cccc(F)c3)C2)C1 ): 0

Recorded Percent Effect (compound CCn1cc(CN2CC3CCCN3C[C@H]2C)c(C)n1 (some centres not stated) ): 9.46

Recorded Percent Effect (compound COCc1cc(NCCc2ccc(F)cc2)n2nccc2n1 ): 0

Recorded Percent Effect (compound Cc1cccc(C(=O)NCCCN2CCN(c3ccccc3)CC2)c1 ): 10.4

Recorded Percent Effect (compound CCOCCn1nc(C)cc1C(=O)N1CCOCC(CO)C1 (configuration not stated) ): 18.9

Recorded Percent Effect (compound CCc1cccc(NS(=O)(=O)c2cc3c(c(C(=O)O)c2)OCCO3)c1 ): 1.27

Recorded Percent Effect (compound Cc1ccc(-c2csc(N)c2C#N)cc1 ): 6.67

Recorded Percent Effect (compound CC(C)COCC1CN(Cc2ccc3c(c2)OCO3)Cc2ncn(C)c21 (configuration not stated) ): -5.41

Recorded Percent Effect (compound O=C(Nc1cccc(CNCc2csc(Br)c2)c1)C1CC1 ): 23.7

Recorded Percent Effect (compound COc1ccc(Br)c(C(=O)NCC2CCN(S(=O)(=O)C3CC3)CC2)c1 ): 19.2

Recorded Percent Effect (compound O=C(NCCS(=O)(=O)N1CCc2ccccc21)c1c(O)cc(F)cc1F ): 2.6
